Overview of recorded ELISA (absorbance units) (absorbance units) for various binders
- target_or_system: unrelated control antibody
- method: phage ELISA, 10^10 phagemid per well, wells coated with control mAb
Positions of bridges follow the written chain, without caps; N, C: chain ends. No end group written: not given here.
measured_parameter: ELISA (absorbance units) (absorbance units)

binder	value
CSFFYSLCYCWCS (disulfide (positions not given here); also: disulfide cyclised, pairing of the four Cys not given here) [phagemid CS1-31p]	0.125
CSGLYPWDYFMCS (disulfide 1-12 (inferred)) [phagemid CS1-29p]	0.148
CSGLYPWDMFRCS (disulfide 1-12 (inferred)) [phagemid CS1-9p]	0.213

Values compiled from patent US20110020379A1.
